Let's look at some compounds and their measured Percent Effect.
# assayed system: Proteasome subunit beta (Trypanosoma cruzi)
# test name: Trypanosoma cruzi proteasome chymotrypsin-like activity (TcProtChymo) assay.
# Format: functional
# Set-up: scale not given: in the data most compounds retested in dose-response had high values
# test parameters: 9.37 µM
State the answer as a number, implicitly in %.

For record Cc1ccc(NC(=O)c2n[nH]c(-n3cnnc3)n2)cc1C the listed Percent Effect is -10.7

For record O=C(Nc1cc(F)ccc1OCC1CCCO1)N1CCCC1 (configuration not stated) the listed Percent Effect is -2.37

For record CC(C)CC1SCC(=O)Nc2c1cnn2C(C)C (configuration not stated) the listed Percent Effect is 16.3

For record Cc1cnn(CC2CCCCN2CC(=O)NCc2ccccn2)c1 (configuration not stated) the listed Percent Effect is 17.4

For record CCn1c(N)nc2cc(C(=O)NCCc3ccccc3C)cnc21 the listed Percent Effect is 22.7

For record Cc1ccc(CNCc2nnc3n2CC(C(F)(F)F)CC3)cc1 (configuration not stated) the listed Percent Effect is 8.5

For record O=C(CCNC(=O)C1CCCC1)NCc1ccccc1Cn1cncn1 the listed Percent Effect is 7.87

For record O=C(C1CC=CC1)N1CCc2c(COCc3ccncc3)cncc2C1 the listed Percent Effect is 29.9

For record COC(C(=O)N1CCN(c2cccc(Cl)c2)C(=O)C1)c1ccccc1 (configuration not stated) the listed Percent Effect is 14.7

For record c1cnn(CC2CN(CCc3ccncc3)CCO2)c1 (configuration not stated) the listed Percent Effect is 6.22

For record COc1ccc(CN2C[C@@H](N(C)Cc3ccco3)[C@H]3OCCC[C@H]32)cc1 the listed Percent Effect is 11

For record CN1CCN(Cc2cn3c(n2)CN(Cc2cccnc2)CC3)CC1 the listed Percent Effect is 5.72
